Can you tell me ELISA for the items I'm about to list?
target: PD-L1 antigen (ELISA of Example 2) (human, UniProt Q9NZQ7 19-239, limits assumed); assay: ELISA, signal on PD-L1 antigen
Sequence (Q9NZQ7 19-239 limits assumed): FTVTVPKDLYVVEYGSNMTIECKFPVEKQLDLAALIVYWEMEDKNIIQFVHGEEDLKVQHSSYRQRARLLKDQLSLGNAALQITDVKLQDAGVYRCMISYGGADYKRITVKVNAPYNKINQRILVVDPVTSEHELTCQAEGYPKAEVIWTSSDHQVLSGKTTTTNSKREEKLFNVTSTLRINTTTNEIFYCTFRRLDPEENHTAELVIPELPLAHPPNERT

Input: Tell us which ELISA value is on record for 3LIG9 (VHH, PD-L1 VHH) VHH: QVQLQESGGGLVQPGGSLRLSCAASGFTFSSYGMSWVRQTPGKGPEWVSAIDSGGGSTSYADSVKGRFTISRDNAKNTLYLQMNSLKPEDTAVYYCAQGYYCSGYGCSDYWGQGTQVTVSS
Output: 3.66

Input: Tell us which ELISA value is on record for 3LIG7 (VHH, PD-L1 VHH) VHH: QVQLQESGGGLVQAGGSLRLSCAASGFTFSSYGMSWVRQTPGKGPEWVSAIDSGGGSTSYADSVKGRFTISRDNAKNTLYLQMNSLKPEDTAVYYCAQGYYCSGYGCSDYWGQGTQVTVSS
Output: 3.64

Input: Tell us which ELISA value is on record for 2LIG35 (VHH, PD-L1 VHH) VHH: QVQLQESGGGLVQPGGSLRLSCAASGFTFSSYGMSWVRQTPGKGPEWVSAIDSGGGSTSYADSVKGRFTTSRDNAKNTLYLQMNSLKPEDTAVYYCAQGYYCSGYGCSDYWGQGTQVTVSS
Output: 0.844

Input: Tell us which ELISA value is on record for 2LIG2 (VHH, PD-L1 VHH) VHH: QVQLQESGGGLVQAGGSLRLSCAASGFTLDYYAIGWFRQAPGKEREEVSCISSSDGSTYYADSVKGRFTISRDNAKNTVNLQMNSLKPEDTAVYYCATDGWSSCRHGINEYLYWGQGTQVTVSS
Output: 0.51
